# Test system: COLO 205 colon
# Test details: NCI-60 one-dose screen, 48 h (100 = growth as untreated, 0 = no growth, -100 = all killed)
# Conditions used: 10 µM unless noted
The panel holds about 83,000 compounds, 20% with a hit somewhere; the sample as a whole holds those more often.
Assay metric: growth (%)
Give bare numbers, in %.

1. Cc1cc(O)cc(-c2c(-c3ccnc(-c4cccnc4)c3)cnn2C)c1 : 84.6
2. Cc1cc(C(O)CN(C)C)cc2c1ccc1cc(C(C)C)ccc12 (stereo not given) : -78.1
3. CCCCCCCC(=O)SCC/C=C/[C@@H]1CC(=O)NCc2cc(ccn2)C2=N[C@@](C)(CS2)C(=O)N[C@@H](C(C)C)C(=O)O1 : -56
4. Cc1nc(NC(=O)N2CCC[C@H]2C(N)=O)sc1-c1ccnc(C(C)(C)C(F)(F)F)c1 : 13.7

Now for a further compound.
[in] # return growth for `C=C1C(=O)O[C@H]2[C@H]1CC/C(C=Nc1c(N)cc(C(F)(F)F)cc1C(F)(F)F)=C\CC[C@@]1(C)O[C@@H]21` , test system: COLO 205 colon
[out] -59.7

###

# Test system: MCF7 breast
# Test details: NCI-60 one-dose screen, 48 h
# Conditions used: 10 µM unless noted
Compounds without any hit were thinned out: in the full panel of roughly 83,000, 20% have a hit. Calls of active or inactive are those of the source. Rule for the calls: active = growth percent below 10; inactive = the rest.
I would appreciate it if you answered using one of these outcomes: 1 (yes) for active, 0 (no) for inactive

Take a look at these entries with their results.
1) CCc1nc2cc(/C=C/C(=O)NO)c(F)cc2c(=O)n1CCc1ccccc1 : 0 (no)
2) CC1(/C=N/NC(N)=S)NC(=O)NC1=O (centres undefined) : 0 (no)
3) COC(=O)[C@H](C)NC(=O)[C@@H](OC)[C@@H]1Cc2cc3cc(OC4CC(OC5CC(O)C(O)C(C)O5)C(O)C(C)O4)c(C)c(O)c3c(O)c2C(=O)[C@H]1OC1CC(OC2CC(OC3CC(C)(O)C(O)C(C)O3)C(O)C(C)O2)C(O)C(C)O1 (some centres undefined) : 1 (yes)

Please examine the following record next.
[in] Tell me the recorded outcome of this test for `COc1cc(Nc2c(C#N)cnc3cc(OCCCN4CCN(C)CC4)c(OC)cc23)c(Cl)cc1Cl` .
[out] 0 (no)

###

# System: OVCAR-8 ovarian
# Test details: NCI-60 one-dose screen, 48 h (100 = growth as untreated, 0 = no growth, -100 = all killed)
# Conditions used: 10 µM unless noted
This is part of a sample that, as a whole, favours compounds with a hit. Of some 83,000 tested, about 20% had one in any assay.
Assign growth to each entry below.
Give bare numbers, in %.

The cases that follow already have their growth on record.
1) CNC(=O)c1cc(COc2nnc(Nc3ccc(Cl)cc3)c3ccoc23)ccn1 : 14.3
2) Cc1cc(NCC(=O)Nc2ccc(-c3nc4ccccc4s3)cc2)no1 : 96.4
3) COc1cc2c(cc1O)c(=O)n(CCN(C)C)c1c3cc4c(cc3ncc21)OCO4 : -9.58
4) COc1cc2nccc(Oc3ccc(NC(=O)Nc4cc(C)on4)c(Cl)c3)c2cc1OC : 15.3

Now for a further molecule.
[in] Look up growth of `CCN(CCO)CCCOc1ccc2c(Nc3cc(CC(=O)Nc4cccc(F)c4)[nH]n3)ncnc2c1` and report it.
[out] 49.8

###

# Test system: RPMI-8226 leukemia
# Test details: NCI-60 one-dose screen, 48 h
# Conditions used: 10 µM unless noted
This is part of a sample that, as a whole, favours compounds with a hit. Of some 83,000 tested, about 20% had one in any assay. The source made the active and inactive calls. Rule for the calls: active = growth percent below 10; inactive = the rest.
Pick one and only one: active, inactive

Before answering, review these 5 worked examples.
1) COc1cc(-c2nc(C(=O)NCC(=O)O)nn2-c2ccc(Cl)cc2)cc(OC)c1OC : inactive
2) CC(N)C(Cc1ccccc1)c1ccc(Cl)cc1 (stereo unspecified) : inactive
3) COc1ccc(C2CC(=O)c3c(O)c(OC)c(OC)c(OC)c3O2)cc1O (stereo unspecified) : inactive
4) CO/C=C/C(=O)c1cc2cnc3c(=N)cc(NC(=O)C(C)C)c([nH]1)c23 : active
5) O=C(NO)c1ccc(Cn2c(=O)n(CCc3ccccc3)c(=O)c3ccccc32)cc1 : inactive

[in] Outcome logged for NC(=O)N1N=C(c2ccc(Cl)cc2)CC1c1cn(-c2ccccc2)nc1-c1ccc(Cl)cc1 (stereo unspecified) in this assay:
[out] inactive

[in] # fetch the recorded call for `O=C(NCCO)Nc1ccc(-c2nc(N3CCOCC3)c3cccn3n2)cc1` here
[out] active

[in] Please share the test call associated with `O=C(Cn1cncn1)Nc1ccc(-c2nc3ccccc3s2)cc1` .
[out] inactive

[in] What call does the record list for `O=C(COc1cccc(/C=C2\Cc3ccc(Cl)cc3C2=O)c1)Nc1nccs1` ?
[out] inactive

[in] // return assay outcome for `O=C(Nc1cccc(Cl)c1)Nc1ncc(CCNc2ncnc3ccsc23)s1`
[out] active

[in] Which outcome was entered for the compound `O=c1[nH]c([C@@H]2CCCN2)nc2c1oc1ccc(Cl)cc12` in this test?
[out] inactive

###

For each of the compounds below, state its growth.
# Tested on: NCI-H23 lung
# Test details: NCI-60 one-dose screen, 48 h (100 = growth as untreated, 0 = no growth, -100 = all killed)
# Conditions used: 10 µM unless noted
Compounds without any hit were thinned out: in the full panel of roughly 83,000, 20% have a hit.
One number for each entry, in %.

Solved cases (4 shown):
1. COc1ccc(OC)c(NC2=C(SCCc3ccccc3)C(=O)c3ccccc3C2=O)c1 : 45.2
2. C[C@@H](C[C@H](CCO)c1cc(C(F)(F)F)cc(C(F)(F)F)c1)c1ccc2ccccc2c1 : 85.3
3. CC(C)[C@@H](C)/C=C/[C@@H](C)[C@H]1CCC2=C3C=CC4=CC(=O)CC[C@]4(C)[C@H]3CC[C@@]21C : 96
4. Oc1ccc(C(c2ccc(O)cc2)C(Cl)(Cl)Cl)cc1 : 99.8

Moving on to another compound below.
[in] // fetch growth given entry `CN1[C@@H]2CC[C@H]1/C(=C\c1ccccc1)C1=C2[C@@H](c2ccccc2)C(C#N)=C(N)O1`
[out] 78.6

###

# System: NCI-H23 lung
# Test details: NCI-60 one-dose screen, 48 h
# Conditions used: 10 µM unless noted
The panel holds about 83,000 compounds, 20% with a hit somewhere; the sample as a whole holds those more often. Calls of active or inactive are those of the source. How the source made its calls: active means growth percent below 10; inactive means the rest.
I would appreciate it if you answered using one of these outcomes: active, inactive

// below: answered compounds
1. CCNCCNc1cc(-c2ccc(Cl)c(Cl)c2)c(C#N)c2nc3ccccc3n12 : active
2. Nc1c(C(=O)c2ccccc2)sc2nc(-c3cccs3)ccc12 : inactive
3. Cc1nc2cc(-c3nn(C(C)C)c4ncnc(N)c34)ccc2o1 : active

[in] Assay outcome for `Clc1ccc2c(NCCNc3nc(N4CCCC4)nc4ccccc34)ccnc2c1` : what was it?
[out] inactive

[in] Hello, I am checking results. What call was entered for `C/C(=C(/c1ccc(Cl)cc1)c1ccc(OCCN2CCCCC2)cc1)c1ccccc1` ?
[out] inactive

[in] Look up the recorded call for `c1cc(OCCN2CCCCC2)cc(-c2n[nH]c3ccc(-c4ncn[nH]4)cc23)c1` in this test.
[out] inactive

[in] Test call, this compound: `O=C(O)c1ccc(Nc2ncc3c(n2)-c2ccc(Cl)cc2C(c2c(F)cccc2F)=NC3)cc1`
[out] inactive

[in] Per the records of this test, what outcome belongs to `CNC(=O)c1cc(Oc2ccc3nc(NC(=O)Nc4ccc(Cl)c(C(F)(F)F)c4)sc3c2)ccn1` ?
[out] inactive

[in] Would you mind telling me which call this test gave `COC(=O)[C@@H](C)CNS(=O)(=O)N(c1cc(C(F)(F)F)cc(C(F)(F)F)c1)C1CCN(Cc2ccc(F)cc2)CC1` ?
[out] inactive

###

# Test system: NCI/ADR-RES ovarian
# Test details: NCI-60 one-dose screen, 48 h (100 = growth as untreated, 0 = no growth, -100 = all killed)
# Conditions used: 10 µM unless noted
This is part of a sample that, as a whole, favours compounds with a hit. Of some 83,000 tested, about 20% had one in any assay. Calls of active or inactive are those of the source. How the source made its calls: active means growth percent below 10; inactive means the rest.
Give measured growth for each item. Keep answers brief.

Solved cases (3 shown):
1. OCCNC(=S)Nc1ccc(-c2nc(N3C[C@H]4CC[C@@H](C3)O4)c3cccn3n2)cc1 : 3.87% (active)
2. Cc1cc(NCC(=O)Nc2ccc(-c3nc4ccccc4s3)cc2)no1 : 103% (inactive)
3. CC(C)[C@@H]1CC[C@@H]2[C@@H]1[C@H](OC(=O)/C=C/c1ccccc1)[C@]1(C(C)C)C[C@@H](OC(=O)CO)[C@@]2(C)O1 : 13.9% (inactive)

I have 5 compounds here; please give me growth for each one.
1. Clc1nc(Cl)c2ncn(C/C=C\Cn3cnc4c(Cl)nc(Cl)nc43)c2n1
2. COC(=O)[C@H](Cc1ccccc1)NC(=O)[C@@H](OC)[C@@H]1Cc2cc3cc(OC4CC(OC5CC(O)C(O)C(C)O5)C(O)C(C)O4)c(C)c(O)c3c(O)c2C(=O)[C@H]1OC1CC(OC2CC(OC3CC(C)(O)C(O)C(C)O3)C(O)C(C)O2)C(O)C(C)O1 (stereo partly drawn)
3. COc1ccc2c(CCCCC(c3ccccc3)c3ccccc3)c3[n+](cc2c1OC)CCc1cc2c(cc1-3)OCO2
4. CN(C)C/C=C/C(=O)Nc1cc2c(Nc3ccc(F)c(Cl)c3)ncnc2cc1O[C@H]1CCOC1
5. CC#CC(=O)N1CCC[C@H]1c1nc(-c2ccc(C(=O)Nc3ccccn3)cc2)c2c(N)nccn12

[out]
30.1% (inactive)
51.6% (inactive)
68.5% (inactive)
5.68% (active)
94.3% (inactive)
